- measurement description: Pharmacokinetic study of YCHD components and phase II metabolites in ANIT-induced cholestatic rats (UHPLC-MS/MS, sulfatase enzymolysis)
- Type: in vivo, rat
- cond: Sprague Dawley, rat, in vivo, po, 12 g/kg
measurement type: Tmax

Incoming: Quick one: Tmax for COC(=O)C1=COC(OC2OC(CO)C(O)C(O)C2O)C2C(CO)=CC(O)C12 (stereo not shown) [Scandoside methyl ester] ?
Outgoing: 4.4 h

====

- measurement description: Pharmacokinetic study of YCHD components and phase II metabolites in normal rats (UHPLC-MS/MS, sulfatase enzymolysis)
- Format: in vivo, rat
- cond: Sprague Dawley, rat, in vivo; Control group (normal rats), single oral YCHD 12 g/kg, plasma
measurement type: Cmax
Returns: string containing the numeric result and its unit.

Incoming: Quick one: Cmax for COC(=O)C1=COC(OC2OC(CO)C(O)C(O)C2O)C2C(CO)=CC(O)C12 (stereo not shown) [Scandoside methyl ester] ?
Outgoing: 127 ng/mL
